# Assay overview: Mean residence time(0 to 24 hrs) in ICR mouse at 1 mg/kg, iv after 24 hrs by HPLC analysis
# Assay type: ADME, organism-based
# Protocol conditions: in vivo
Quantity name: MRT last (h)
Report as a plain number; the unit h is understood.

Consider the compound COC(=O)[C@H]1[C@@H]2C[C@@H](O[C@@H]3O[C@H](C)[C@@H](O)[C@H](NC(=O)CCOCCOCCOCCOCCOCCOCCOCCOCCN)[C@@H]3O)/C=C/C=C/C=C/C=C/C=C/C=C/C=C/[C@H](C)[C@@H](O)[C@@H](C)[C@H](C)OC(=O)C[C@H](O)C[C@H](O)CC[C@@H](O)[C@H](O)C[C@H](O)C[C@](O)(C[C@@H]1O)O2 and give its measured MRT last.
5.43
